Data origin, for the record: PubChem BioAssay (NCI)

system: SF-539 CNS; experiment: NCI tumour cell line growth inhibition, 48 h; in the data active means GI50 below about 0.43 µM; inactive means the rest
Hi! Could you answer with just one of these? active, inactive

Past entries and their recorded results:
>>> label_value("CC(=O)O[C@H]1CC[C@@]2(C)C(=C/C(=N/OCCN3CCCC3)[C@H]3[C@@H]4CC[C@H](OC(C)=O)[C@@]4(C)CC[C@@H]32)C1")
"inactive"
>>> label_value("Cc1ccc(-n2nnnc2-c2cnc(N3CCOCC3)nc2-c2cccc(C(F)(F)F)c2)cc1")
"inactive"
>>> label_value("CN(CCCCCl)P(=O)(OCc1ccc([N+](=O)[O-])o1)OCC1OC(n2cnc([N+](=O)[O-])c2N)C(O)C1O (configuration not stated)")
"inactive"

*Q* Tell me the assay call for `Cl.Fc1c[c-]c(-c2ccccn2)c(F)c1.[Pt].c1ccc([PH+](C[PH+](c2ccccc2)c2ccccc2)c2ccccc2)cc1` please.
*A* active
